assay: in vivo; settings: rat, iv, 10 mg/kg

structure_smiles_string	units_of_measure	half-life
Cc1cncc(-c2nc(C(F)(F)F)cn2-c2ccc(S(N)(=O)=O)cc2)c1	h	4.96
